System: HBsAg
Experiment Notes: microbe, parasite or virus in culture
Experimental Parameters: Hepatitis B virus, HepG2.2.15, read-out: IC50 (HBsAg secretion reduced by 50% compared to the no drug control)
pIC50: −log10 of the molar value. Where a name gives a salt, the structure may show the parent alone.
# pIC50 >= 8 gives t, anything below gives f

Compound	Class Label
COc1cc2c(cc1OCC(C)C)CC(c1cccs1)n1cc(C(=O)O)c(=O)cc1-2 (centres unmarked) [Example 14]	t
COc1cc2c(cc1OCC1CC1)CC(c1cccs1)n1cc(C(=O)O)c(=O)cc1-2 (centres unmarked) [Example 15]	t
COCCCOc1cc2c(cc1OC)-c1cc(=O)c(C(=O)O)cn1C(c1ccc(F)cc1)C2 (centres unmarked) [Example 9]	f
CCc1cc2c(cc1OC)-c1cc(=O)c(C(=O)O)cn1C(c1cccs1)C2 (centres unmarked) [Example 34]	f
COc1cc2c(cc1OCCCn1cncn1)CC(c1cccs1)n1cc(C(=O)O)c(=O)cc1-2 (centres unmarked) [Example 29]	f
COc1cc2c(cc1OCCCCCCN)CC(c1cccs1)n1cc(C(=O)O)c(=O)cc1-2 (centres unmarked) [Example 22, Formate]	f

----------
Test system: HBsAg
Experiment Notes: microbe, parasite or virus in culture
Experimental Parameters: Hepatitis B virus, HepG2.2.15, read-out: IC50 (HBsAg secretion reduced by 50% compared to the no drug control)

Molecule	IC50 (nM)
COc1cc2c(cc1OCCCn1cccn1)CC(c1cccs1)n1cc(C(=O)O)c(=O)cc1-2 (stereo not drawn)	9
COc1cc2c(cc1OC)-c1cc(=O)c(C(=O)O)cn1C(c1cccs1)C2 (stereo not drawn)	6
COc1cc2c(cc1OCC(C)(C)CO)CC(c1cccs1)n1cc(C(=O)O)c(=O)cc1-2 (stereo not drawn)	4
COCCCOc1cc2c(cc1OC)-c1cc(=O)c(C(=O)O)cn1C(c1ccc(OC)cc1)C2 (stereo not drawn)	800
COc1cc2c(cc1OCCCC(=O)O)CC(c1cccs1)n1cc(C(=O)O)c(=O)cc1-2 (stereo not drawn)	320
COc1cc2c(cc1OCCCCCCO)CC(c1cccs1)n1cc(C(=O)O)c(=O)cc1-2 (stereo not drawn)	3
COCCCOc1cc2c(cc1OC)-c1cc(=O)c(C(=O)O)cn1C(c1cc(C)cs1)C2 (stereo not drawn)	9
COc1ccc2c(c1C)CC(c1cccs1)n1cc(C(=O)O)c(=O)cc1-2 (stereo not drawn)	170
COc1cc2c(cc1N1CCCC1)CC(c1cccs1)n1cc(C(=O)O)c(=O)cc1-2 (stereo not drawn)	3

----------
Each entry below carries its reported IC50.
Tested on: HBsAg
Experiment Notes: microbe, parasite or virus in culture
Experimental Parameters: Hepatitis B virus, HepG2.2.15, read-out: IC50 (HBsAg secretion reduced by 50% compared to the no drug control)
Structures can show the parent of a compound that is named as a salt.
Outcome Measure: IC50 (nM)

Compound	Result Value
COc1cc2c(cc1OCCCN1CCCCC1)CC(c1cccs1)n1cc(C(=O)O)c(=O)cc1-2 (stereo not shown) [Example 18, Formate]	97
CCCc1cc2c(cc1OC)-c1cc(=O)c(C(=O)O)cn1C(c1cccs1)C2 (stereo not shown)	22
COc1cc2c(cc1OCCCO)CC(c1cccs1)n1cc(C(=O)O)c(=O)cc1-2 (stereo not shown)	18
COCCCOc1cc2c(cc1OC)-c1cc(=O)c(C(=O)O)cn1C(c1ccc(OCc3ccccc3)cc1)C2 (stereo not shown)	1930
COCCCOc1cc2c(cc1OC)-c1cc(=O)c(C(=O)O)cn1C(c1ccc(O)cc1)C2 (stereo not shown)	1160
COc1cc2c(cc1OCCCCCCNS(C)(=O)=O)CC(c1cccs1)n1cc(C(=O)O)c(=O)cc1-2 (stereo not shown)	10
COc1cc2c(cc1OCCCC#N)CC(c1cccs1)n1cc(C(=O)O)c(=O)cc1-2 (stereo not shown)	5
COCCCOc1cc2c(cc1OC)-c1cc(=O)c(C(=O)O)cn1C(c1ccccc1C)C2 (stereo not shown)	10
COc1cc2c(cc1C)CC(c1cccs1)n1cc(C(=O)O)c(=O)cc1-2 (stereo not shown)	35
COc1cc2c(cc1OCCCSC)CC(c1cccs1)n1cc(C(=O)O)c(=O)cc1-2 (stereo not shown)	4
COc1cc2c(cc1OCCCCCCNC(C)=O)CC(c1cccs1)n1cc(C(=O)O)c(=O)cc1-2 (stereo not shown)	18
COCCCOc1cc2c(cc1Cl)-c1cc(=O)c(C(=O)O)cn1C(c1cc3ccccc3s1)C2 (stereo not shown)	4420
COc1cc2c(cc1OCCN1CCCC1=O)CC(c1cccs1)n1cc(C(=O)O)c(=O)cc1-2 (stereo not shown)	37
COc1cc2c(cc1OCCCS(C)(=O)=O)CC(c1cccs1)n1cc(C(=O)O)c(=O)cc1-2 (stereo not shown)	110
COc1cc2c(cc1OCC(F)(F)F)CC(c1cccs1)n1cc(C(=O)O)c(=O)cc1-2 (stereo not shown)	3
COc1cc2c(cc1OCc1ccccc1)CC(c1cccs1)n1cc(C(=O)O)c(=O)cc1-2 (stereo not shown)	5
